Attribution: ChEMBL document CHEMBL4266054

Answer each item with its documented INH.
# TEST TARGET: Inhibitor of nuclear factor kappa-B kinase subunit epsilon (Homo sapiens)
# METHOD: Inhibition of IKK-epsilon (unknown origin) using fluorescein-labelled DRHDSGLDSMKDE as substrate after 1 hr by TR-FRET assay
Answers are plain numbers, in nM.

Past entries and their recorded results:
CCN1CCN(Cc2ccc(Nc3nccc(-c4cnc(N5CC[C@H](F)C5)c(C#N)c4)n3)cn2)CC1 :: 16
CN1CCN(Cc2ccc(Nc3nccc(-c4cnc(N5CC[C@H](F)C5)c(C#N)c4)n3)cn2)CC1 :: 24

Continue with the molecule presented below.
Problem: Reported INH for Inhibitor of nuclear factor kappa-B kinase subunit epsilon (Homo sapiens), given CCN1CCN(Cc2ccc(Nc3nccc(-c4cnc(N5CC[C@@H](F)C5)c(C#N)c4)n3)cn2)CC1 ?
Result: 21
